- Tested on: NCI-H460
- assay: NCI tumour cell line growth inhibition, 48 h
Activity calls are given as the source filed them. No stated cut-off is given here; in the data, active = GI50 up to about 1.1 µM and inactive = higher.
propertyMeasured: GI50

Form field: reported GI50 of CC(=O)Nc1ccc(/C=C2\N=C(c3ccccc3)OC2=O)cc1
68.5 µM (inactive)

What value of GI50 has been recorded for this entry: CSC(SC)=C1C(=O)N(c2ccccc2)N=C1C
23.9 µM (inactive)

Recorded GI50 for COCCCN1C(=O)C2c3[nH]c4ccccc4c3C3CCC(C(C)(C)C)CC3C2C1=O (stereo unspecified) , please?
18.7 µM (inactive)

Tell me the measured GI50 of COc1cc(/C=C/C=C2\CCC/C(=C\C=C\c3ccc(O)c(OC)c3)C2=O)ccc1O , please.
13.8 µM (inactive)

Suppose we examine the molecule NC(CP(=O)(O)O)C(=O)O (stereo unspecified) ; what GI50 value has been reported?
> 100 µM (inactive)

For the molecule shown here, CC(=O)N(N=O)c1ccc(N(N=O)C(C)=O)cc1 , give the reported GI50.
> 100 µM (inactive)

###

- System: SK-MEL-2
- assay: NCI tumour cell line growth inhibition, 48 h
Activity calls are given as the source filed them. No stated cut-off is given here; in the data, active = GI50 up to about 1.1 µM and inactive = higher.
Choose the fitting class; nothing outside 1 = active, 0 = inactive is accepted.

Could you please tell me the result logged for O=C1NC(=O)C(c2c[nH]c3cc(Br)ccc23)=C1c1cnc[nH]1 in this assay?
0

Assay outcome for CCN(CC)c1c(C(=O)/C=C/c2ccc(Cl)cc2)c(-c2ccccc2)nn(C)c1=O : what was it?
0

// return assay outcome for CC1CCC2C(C)(C)CC3(C)CCC1C23O (stereo not given)
0

Please share the test call associated with COc1cc2cc3c4c(cc(OC)c(OC)c4c2cc1OC)CCN3C(=O)OCCN1CCNCC1 .
0

So what was the verdict on O=c1c2ccccc2[nH]c2ccc3c(Cl)n[nH]c3c12 in this test?
0

So what was the verdict on CCOP(=O)(OCC)C(C)(C)OC(=O)NC#N in this test?
0

Can you look up the reported call for N/C(=N\c1ccc(Cl)cc1)NS(=O)(=O)c1cccc2nsnc12 for me?
0

Dear colleague, could you share the recorded outcome for COC(=O)C(=O)C(C(=O)OC)C(=O)C(=O)Nc1ccccc1C(N)=O (stereo not given) when you have a moment?
0

Query: recorded result category for COc1cc([C@@H]2c3cc4c(cc3[C@@H](OC3OC5CO[C@@H](c6cccs6)OC5C(O)C3O)[C@H]3COC(=O)[C@H]23)OCO4)cc(OC)c1O (stereo not given in full) in this test
1

Please let me know the test result on file for CCn1c(-c2ccc(OC(C)=O)cc2)c(C)c2cc(OC(C)=O)ccc21 [ZINDOXIFENE] .
0

Which outcome did this test record for the compound CC(=O)N1CC(C)(C)c2c1cc(C)c(O)c2C ?
0

Outcome logged for NS(=O)(=O)c1nn2c(Br)c(-c3ccccc3)nc2s1 in this assay:
0

I'd appreciate the recorded outcome for O=C(C1=C(C(=O)c2ccccc2)SC2(S1)C(C(=O)c1ccccc1)=C(C(=O)c1ccccc1)Sc1c2ssc1=O)c1ccccc1 from this test.
0

Test call for this compound, please: CCOC(=O)CC(=O)C(=O)NN=C1NCCCN1
0

Answer briefly: the call reported for CC(=O)Nc1ccc(/C=C2\N=C(c3ccccc3)OC2=O)cc1 in this assay.
0

Would you mind telling me which call this test gave O=C1N/C(=N/N=C\C(O)C(O)C(O)C(O)CO)N/C1=C/c1ccc(Cl)cc1 (stereo not given) ?
0

Tell me the assay call for O=C1O[C@@H](c2ccccc2)C[C@@H]1CN1CCOCC1 please.
0

Recorded test outcome, item O=C1[C@H]2ON(c3ccccc3)C(c3ccccc3F)[C@H]2C(=O)N1c1ccc(Cc2ccc(N3C(=O)[C@@H]4ON(c5ccccc5)C(c5ccccc5F)[C@@H]4C3=O)cc2)cc1 (stereo not given in full)
0

// outcome(item) with item = NC(=O)c1ncn2c(=O)n(CCCl)nnc12 [MITOZOLOMIDE]
0

Query: recorded result category for CCOc1ccc(NC(=O)C(=O)CC(=O)C2=C(C)Nc3ccccc3S2)cc1 in this test
0
